biological target: 17β-HSD1 (Homo sapiens, UniProt P14061); construct: endogenous in cells; host or cells: T-47D human breast cancer cells (ATCC), whole cells; experiment: 17β-HSD1 inhibition assay: transformation of [3H]-E1 to [3H]-E2 in whole T-47D cells; assay type: cell-based; settings: T47D
measure: inhibition at 10 µM (%)
Give the value, in units of %, as a plain number.

The cases that follow already have their inhibition at 10 µM on record.
molecule: C[C@]12CC[C@@H]3c4ccc(Oc5cccc(C(N)=O)c5)cc4CC[C@H]3[C@@H]1C[C@@H](CCCBr)[C@@H]2O
inhibition at 10 µM, %: 82.1
--
molecule: C[C@]12CC[C@@H]3c4ccc(Oc5cccc(C(N)=O)c5)cc4CC[C@H]3[C@@H]1CC[C@@H]2O
inhibition at 10 µM, %: 59.6
--
molecule: C[C@]12CCC3c4ccc(O)cc4CCC3C1C[C@@H](CCCBr)[C@@H]2O (stereo partly shown)
inhibition at 10 µM, %: 86.6

# evaluate next
Inquiry: Need inhibition at 10 µM of C[C@]12CC[C@@H]3c4ccc(Oc5cccc(C(N)=O)c5)cc4CC[C@H]3[C@@H]1CCC2=O , thanks.
Reply text: 98.9

---

Documented inhibition at 1 µM across a set of molecules
target: 17β-HSD1 (Homo sapiens, UniProt P14061); construct: endogenous in cells; host or cells: T-47D human breast cancer cells (ATCC), whole cells; assay: 17β-HSD1 inhibition assay: transformation of [3H]-E1 to [3H]-E2 in whole T-47D cells; assay type: cell-based; conditions: T47D
Mention the unit after the number when you answer.

Inquiry: What measured inhibition at 1 µM goes with C[C@]12CCC3c4ccc(O)cc4CCC3C1C[C@@H](CCCBr)[C@@H]2O (stereo partly shown) ?
Reply text: 36.9%

---

Biological target: 17β-HSD1 (Homo sapiens)
Construct: endogenous in cells; host or cells: T-47D human breast cancer cells (ATCC), whole cells
Sequence (P14061 1-328): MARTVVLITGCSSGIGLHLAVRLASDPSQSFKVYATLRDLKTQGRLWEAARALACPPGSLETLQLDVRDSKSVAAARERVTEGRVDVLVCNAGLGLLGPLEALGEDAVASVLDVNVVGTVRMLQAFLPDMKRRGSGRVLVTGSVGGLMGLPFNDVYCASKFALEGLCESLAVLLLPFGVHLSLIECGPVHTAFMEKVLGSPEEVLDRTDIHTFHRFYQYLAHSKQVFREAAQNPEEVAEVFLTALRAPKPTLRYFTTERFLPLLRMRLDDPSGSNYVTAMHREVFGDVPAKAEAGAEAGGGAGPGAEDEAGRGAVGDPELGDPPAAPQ
Experiment: 17β-HSD1 inhibition assay: transformation of [3H]-E1 to [3H]-E2 in whole T-47D cells
Assay type: cell-based
Settings: read-out: Inhibition (IC50 in μM) of E1 to E2 transformation by 17β-HSD1; T-47D cells, [3H]-E1/E1 60 nM, 24 h
// values below are reported IC50
Response body: numeric value in µM, unit text excluded.

compound: C[C@]12CC[C@@H]3c4ccc(CCBr)cc4CC[C@H]3[C@@H]1C[C@H](Cc1cccc(C(N)=O)c1)[C@@H]2O [PBRM]
IC50 [µM]: 0.15

Now for another entry.
Inquiry: What reported IC50 corresponds to C[C@]12CC[C@@H]3c4ccc(Oc5cccc(C(N)=O)c5)cc4CC[C@H]3[C@@H]1C[C@@H](CCCBr)[C@@H]2O [Compound 10] on 17β-HSD1 (Homo sapiens)?
Reply text: 1.3
